Measured values drawn from ChEMBL document CHEMBL5291721 for this set.

Observed AC50 values for 5-hydroxytryptamine receptor 6 (Homo sapiens, UniProt P50406) are listed in what follows.

Solved cases below.
{"compound": "CN1CCN(C(=O)OC2c3nccnc3C(=O)N2c2ccc(Cl)cn2)CC1 (stereo unspecified)", "endpointResult": "> 10 µM"}
{"compound": "NC(N)=Nc1nc(CSCCC(N)=NS(N)(=O)=O)cs1", "endpointResult": "> 10 µM"}
{"compound": "O=P(O)(O)C(O)(Cc1cccnc1)P(=O)(O)O", "endpointResult": "> 10 µM"}

Q. Requested field: AC50. Item: NC(=O)c1cnccn1 [PYRAZINAMIDE]
A. > 10 µM

Q. Next record, please: CCc1ccc(CCOc2ccc(CC3SC(=O)NC3=O)cc2)nc1 (stereo unspecified)
A. > 10 µM

Q. CCc1nn(CCCN2CCN(c3cccc(Cl)c3)CC2)c(=O)n1CCOc1ccccc1 ?
A. 0.808 µM

Q. Proceed to CCCCCN(C)CCC(O)(P(=O)(O)O)P(=O)(O)O
A. > 10 µM

Q. Continue with CCOC(=O)[C@H](CCc1ccccc1)N[C@@H](C)C(=O)N1CCC[C@H]1C(=O)O
A. > 10 µM

Q. C#C[C@]1(O)CC[C@H]2[C@@H]3CCc4cc(O)ccc4[C@H]3CC[C@@]21C ?
A. > 30 µM

Q. Request: O=C(Nc1ccccc1)OCC(CN1CCCCC1)OC(=O)Nc1ccccc1 (stereo unspecified)
A. > 10 µM

Q. Repeat with O=C(CCCCCCC(=O)Nc1ccccc1)NO
A. > 10 µM

Q. C[C@H]1O[C@H](O[C@H]2[C@H](O)[C@@H](O)[C@@H](O[C@H]3[C@H](O)[C@@H](O)C(O)O[C@@H]3CO)O[C@@H]2CO)[C@H](O)[C@@H](O)[C@@H]1N[C@H]1C=C(CO)[C@@H](O)[C@H](O)[C@H]1O (stereo partly specified) , same question.
A. > 10 µM

Q. Then this compound: COc1cc2c(cc1OC)C(=O)C(CC1CCN(Cc3ccccc3)CC1)C2 (stereo unspecified)
A. > 10 µM

Q. Also check O=C(O)CCCc1ccccc1
A. > 10 µM

Q. Also, CN(C)C(=O)OC1N=C(c2ccccc2)c2cc(Cl)ccc2N(C)C1=O (stereo unspecified) please.
A. > 10 µM

Q. Follow-up item: NC(=O)C[S+]([O-])C(c1ccccc1)c1ccccc1 (stereo unspecified)
A. > 10 µM

Q. Quick one: NS(=O)(=O)c1cc2c(cc1Cl)NCNS2(=O)=O [HYDROCHLOROTHIAZIDE]
A. > 10 µM

Q. Input COc1cc(Nc2c(C#N)cnc3cc(OCCCN4CCN(C)CC4)c(OC)cc23)c(Cl)cc1Cl
A. > 10 µM

Q. One more compound: Nc1nc(N)c2nc(-c3ccccc3)c(N)nc2n1
A. > 10 µM

Q. How about this compound: CN(C)CCCN1c2ccccc2Sc2ccccc21
A. 0.242 µM

Q. Similarly, Cc1ccc(-c2nc3ccc(C)cn3c2CC(=O)N(C)C)cc1 ?
A. > 10 µM
